z-score by entry:
assay remarks: basal 3T3-L1 adipocyte mitochondrial potential changes, profiling panel, cell-based, JC-1 fluorescence, 3T3-L1 adipocytes, 24 h, 100 nL compound (AID 1168); also: test concentration not given here
test conditions: JC-1 mitochondrial fluorescence, higher = more signal, called active from +8 up or from −8 down
readout label: z-score

molecule	readout label	val
COCCOC(=O)N1C(=O)[C@@]2(c3cc(C#CCCO)ccc31)[C@H](c1ccccc1OCCO)N1[C@H](c3ccccc3)[C@H](c3ccccc3)OC(=O)[C@H]1[C@@H]2C(=O)N1CCCCCCC1	z-score	0.339
C=CCNC(=O)[C@@H]1[C@H]2C(=O)O[C@H](c3ccccc3)[C@H](c3ccccc3)N2[C@H](c2ccc(O)cc2)[C@@]12C(=O)N(C(=O)OCCOC)c1ccc(C#CCCO)cc12	z-score	0.152
CCN(CC)c1ccc(N2CC=CC34O[C@@H]5C=CCCOC(=O)C5[C@H]3C(=O)N(CCO)[C@@H]4C2=O)cc1 (stereo partly specified)	z-score	0.0903
O=C1C2C=CC(C(O)c3cccc(O)c3)N(Nc3ccccc3)C2C(=O)N1c1ccccc1 (stereo unspecified)	z-score	0.166
COc1cc(NN2C(C(O)c3cc(OC)c(OC)c(OC)c3)C=CC3C(=O)N(c4ccccc4)C(=O)C32)cc(OC)c1OC (stereo unspecified)	z-score	-0.768
C=CC1c2cc(O)c(OC)cc2CCN1Cc1ccc([N+](=O)[O-])o1 (stereo unspecified)	z-score	0.362
CCOC(=O)C1=C[C@@H](c2ccccc2)N(S(=O)(=O)c2ccc(C)cc2)[C@H]1c1ccccc1	z-score	-2.52
COc1ccc(C(O)C2C=CC3C(=O)N(c4ccccc4)C(=O)C3N2Nc2ccccc2F)cc1 (stereo unspecified)	z-score	-0.149
CC(C)C[C@@H]1NC(=O)[C@@]23C(=O)N[C@@H](Cc4ccccc4)C2[C@H](C)[C@@]2(C)O[C@H]2C3/C=C/C/C=C\CNC(=O)[C@@H](C)NC1=O (stereo partly specified)	z-score	0.625
O=C1C[C@@](C(=O)NCC(F)(F)F)(c2ccc([N+](=O)[O-])cc2)[C@@H](c2ccc(CO)cc2)N1CC12CC3CC(CC(C3)C1)C2	z-score	-1.29
NC(=O)[C@H]1[C@@H]2C(=O)O[C@@H](c3ccccc3)[C@@H](c3ccccc3)N2[C@@H](c2ccc(O)cc2)[C@]12C(=O)Nc1ccccc12	z-score	-0.243
O=C(O)[C@@H]1C[C@@H]2C(=O)N3CCC[C@H]3C(=O)N2[C@@H]1c1cccc(OCCO)c1	z-score	0.283
C=C(C)C1CCC(C(O)C2C=CC3C(=O)N(C)C(=O)C3N2Nc2cc(OC)c(OC)c(OC)c2)CC1 (stereo unspecified)	z-score	-0.696
CC(=O)NCCCC[C@@H]1NC(=O)[C@H]2C[C@@H](C(=O)NCCCCCNC(=O)CS)[C@@H](c3cccc(OCCO)c3)N2C1=O	z-score	-0.286
COc1ccc([Si](C)(C)[C@@H]2[C@@H](CCn3cc([C@H](O)c4ccccc4)nn3)O[C@]3(C(=O)N(Cc4cccc(N5C(=O)c6cccc7cccc5c67)c4)c4ccccc43)[C@H]2C)cc1	z-score	-0.265
C=C(COC)C(=O)CC[C@@H](OC(=O)c1cccnc1)c1ccccc1OCCO	z-score	1.08

###

assay remarks: basal RPMI8226 viability, no added stimulus, profiling panel, cell-based, calcein-AM fluorescence, 48 h, PK04 Diversity Set (AID 1166);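 also: cells grown under basal conditions without added stimulus; test concentration not given here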
test conditions: RPMI8226 myeloma viability, higher = more signal
readout label: z-score

>>> print(df.to_string())
                                   molecule  readout_label     val
0     CCCCC=C[C@@H](NC(=O)c1ccccc1)c1ccccc1        z-score   -2.29
1  CCN(CC)c1ccc(N2CC=CC34O[C@@H]5/C=C\CCC(C)OC(=O)C5[C@H]3C(=O)N(C(C)CO)[C@@H]4C2=O)cc1 (some centres undefined)        z-score   0.388
2  CN1C(=O)C2C(C1=O)C1C=C(CCCO)C2C(c2cccs2)N1Cc1cc2c(cc1Br)OCO2 (centres undefined)        z-score   -1.44
3  CC(C)C[C@@H]1NC(=O)[C@@H]2C[C@H](C(=O)NCCCCCC[N+](C)(C)C)[C@H](c3cccc(OCCO)c3)N2C1=O        z-score  -0.585

###

assay remarks: cell viability in Huh7 cells, primary screen, cytotoxicity control for HCV replication inhibitor project, CellTiter-Glo luminescence, basal, 48 h (AID 1143);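 also: Huh7 hepatoma cells carrying a hepatitis C replication reporter with no stimulus; test concentration not given here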
test conditions: Huh7 HCV replicon, higher = more signal, called active from +8 up or from −8 down
z-score by entry:
readout label: z-score

smiles input	readout label	val
COc1cc2c(cc1OC)CN(C(=O)[C@@H]1[C@H]3C(=O)O[C@H](c4ccccc4)[C@H](c4ccccc4)N3[C@H](c3ccc(O)cc3)[C@@]13C(=O)Nc1ccc(C#CCCO)cc13)CC2	z-score	0.082
COCCCNC(=O)[C@@]1(c2ccc([N+](=O)[O-])cc2)CC(=O)N(C(C)C)[C@@H]1c1ccc(CO)cc1	z-score	0.433
C=C(COC)C(=O)CC[C@H](OC(C)=O)c1ccc(OCCO)cc1	z-score	-3.53

###

assay system: Homeobox protein Hox-A13 (Mus musculus) (UniProt Q62424)
Sequence (Q62424 whole entry, looked up): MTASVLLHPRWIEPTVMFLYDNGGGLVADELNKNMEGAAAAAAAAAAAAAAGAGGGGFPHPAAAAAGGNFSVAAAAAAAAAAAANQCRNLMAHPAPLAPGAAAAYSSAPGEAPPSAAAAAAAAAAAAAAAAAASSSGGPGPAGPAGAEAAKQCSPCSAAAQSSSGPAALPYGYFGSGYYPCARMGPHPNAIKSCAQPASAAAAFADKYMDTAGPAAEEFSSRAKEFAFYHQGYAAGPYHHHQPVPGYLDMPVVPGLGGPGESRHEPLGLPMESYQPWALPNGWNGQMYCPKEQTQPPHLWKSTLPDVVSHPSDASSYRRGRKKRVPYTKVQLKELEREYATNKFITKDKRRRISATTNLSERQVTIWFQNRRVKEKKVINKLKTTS
assay remarks: inhibitors of HoxA13-DNA binding, primary screen, biochemical, fluorescence polarization, labeled oligonucleotide (AID 1185)
test conditions: 15 min, higher = more signal, called active from +8 up or from −8 down
Could you label it yes (1) if measured z-score is -3 or higher, and no (0) otherwise?

molecule	classification
COCC(=C=CC[C@H](O)c1cccc(OCCO)c1)C[C@H](O)COCc1ccccc1	no (0)
O=C1c2ccccc2[C@](Cc2ccccc2I)(C(=O)NC2CC2)[C@H](c2ccc(CO)cc2)N1Cc1ccccc1C(F)(F)F	no (0)
[N-]=[N+]=Nc1ccccc1C[C@]1(C(=O)NCc2ccccc2)COC(c2ccc(OCCCO)cc2)=N1	no (0)
C[C@@]12COC[C@]13C=C(Br)[C@H](C2)[C@@]1(CO1)C3=O	yes (1)
C=CCC(OC(C)=O)[C@@H]1[C@@H](N(Cc2cccc3ccccc23)C(=O)c2cccc3ccccc23)c2cc(OCCCO)ccc2N1C(=O)c1ccc2ccccc2c1 (some centres undefined)	yes (1)
C=CCOC(=O)[C@H]1[C@@H]2C(=O)O[C@@H](c3ccccc3)[C@@H](c3ccccc3)N2[C@@H](c2ccc(OCCOC(=O)[C@H]3C[C@H]4C(=O)N[C@@H](CCCCNC(C)=O)C(=O)N4[C@H]3c3cccc(OCCO)c3)cc2)[C@]12C(=O)Nc1ccc(I)cc12	yes (1)
COCCCNC(=O)[C@@]1(Sc2ccc(C)cc2)CC(=O)N(Cc2ccccc2Cl)[C@@H]1c1ccc(CO)cc1I	yes (1)
[N-]=[N+]=Nc1ccccc1C[C@]1(C(=O)O)N=C(c2ccc(OCCCO)cc2)O[C@H]1c1ccccc1	no (0)
COc1ccc([Si](C)(C)[C@@H]2[C@@H](CCn3cc([C@H](O)c4ccccc4)nn3)O[C@]3(C(=O)N(Cc4cccc(N5C(=O)c6cccc7cccc5c67)c4)c4ccccc43)[C@H]2C)cc1	yes (1)
COc1ccc([Si](C)(C)[C@@H]2[C@@H](CC(=O)N3Cc4ccccc4C[C@H]3CO)O[C@]3(C(=O)N(c4ccccc4)c4ccccc43)[C@H]2C)cc1	no (0)
Cc1ccc(S[C@]2(C(=O)NC(C)C)CC(=O)N(Cc3ccccc3Cl)[C@@H]2c2ccc(CO)cc2)cc1	no (0)
CCOC(=O)C[C@H]1[C@H](OC(=O)c2ccccc2-c2ccccc2)[C@@H](NC(=O)c2ccc3ccccc3n2)c2cc(OCCCO)ccc2N1C(=O)c1ccccc1	yes (1)
[N-]=[N+]=NCc1ccccc1[C@@H]1OC(c2ccc(OCCCO)cc2)=N[C@]1(Cc1ccccc1N=[N+]=[N-])C(=O)N1CCCCC1	yes (1)
COC(=O)C1=CC(CCCO)=CC(C)N(Cc2cccc(OC(F)(F)F)c2)C=C1C(=O)OC (centres undefined)	no (0)
COC(=O)C(CC#Cc1ccc2c(c1)[C@]1(C(=O)N2)[C@H](c2ccc(OCCO)cc2)N2[C@H](c3ccccc3)[C@H](c3ccccc3)OC(=O)[C@H]2[C@@H]1C(=O)N1CCN(c2ncccn2)CC1)C(=O)OC	yes (1)
CC(=O)n1cc(C(O)C2C=CC3C(=O)N(c4ccccc4)C(=O)C3N2Nc2ccc(C(C)C)cc2)c2ccccc21 (centres undefined)	yes (1)
C[C@]1(C(=O)NCCN2CCOCC2)c2ccccc2C(=O)N(Cc2cc(F)cc(C(F)(F)F)c2)[C@H]1c1ccc(CO)cc1	no (0)
C=C(COC)C(=O)CC[C@H](OC(=O)c1cccnc1)c1ccc(CO)o1	no (0)
C=C(COC)C(=O)CC[C@@H](OC(=O)c1cccnc1)c1ccccc1OCCO	no (0)

###

assay remarks: binders from COS7 lysate, DM2A8 probe, primary screen, torsin A project, cell lysate, small-molecule microarray, fluorescence 635/667 (AID 1065)
test conditions: higher = more signal, COS7 lysate expressing mutant human TOR1A
readout label: composite z-score

>>> df
                                   compound      readout_label      val
0  [N-]=[N+]=NCc1ccccc1[C@@H]1OC(c2ccc(OCCCO)cc2)=N[C@]1(Cc1ccccc1N=[N+]=[N-])C(=O)NCCN1CCOCC1  composite z-score    0.909
1  CCCCC(=C=CC[C@H](O)c1ccc(OCCO)cc1)C[C@H](O)c1cc(Cl)cc(Cl)c1O  composite z-score    0.092
2  COc1ccc([Si](C)(C)[C@H]2[C@H](CC(=O)N3CCC[C@H]3CO)O[C@@]3(C(=O)N(Cc4ccc(N5CCC5=O)cc4)c4ccccc43)[C@@H]2C)cc1  composite z-score    0.429
3  O=C1C2C=CC(C(O)c3ccc(I)cc3)N(Nc3ccccc3)C2C(=O)N1c1ccccc1 (stereo not given)  composite z-score    0.404
4  CC(=O)N1CC(C(O)C2C=CC3C(=O)NC(=O)C3N2Nc2ccc(Cl)cc2Cl)c2ccccc21 (stereo not given)  composite z-score  -0.0312

Value source: PubChem BioAssay
